# MEASURED_TARGET: F508delCFTR (Homo sapiens, UniProt P13569, DEL508-508)
# Construct: expressed in transfected cells; host or cells: CFBE41o- human lung-derived epithelial cells (CFBE41o-F508delCFTR-HRP), doxycycline-inducible
# Sequence (P13569 with tags, fused parts or gaps DEL508-508): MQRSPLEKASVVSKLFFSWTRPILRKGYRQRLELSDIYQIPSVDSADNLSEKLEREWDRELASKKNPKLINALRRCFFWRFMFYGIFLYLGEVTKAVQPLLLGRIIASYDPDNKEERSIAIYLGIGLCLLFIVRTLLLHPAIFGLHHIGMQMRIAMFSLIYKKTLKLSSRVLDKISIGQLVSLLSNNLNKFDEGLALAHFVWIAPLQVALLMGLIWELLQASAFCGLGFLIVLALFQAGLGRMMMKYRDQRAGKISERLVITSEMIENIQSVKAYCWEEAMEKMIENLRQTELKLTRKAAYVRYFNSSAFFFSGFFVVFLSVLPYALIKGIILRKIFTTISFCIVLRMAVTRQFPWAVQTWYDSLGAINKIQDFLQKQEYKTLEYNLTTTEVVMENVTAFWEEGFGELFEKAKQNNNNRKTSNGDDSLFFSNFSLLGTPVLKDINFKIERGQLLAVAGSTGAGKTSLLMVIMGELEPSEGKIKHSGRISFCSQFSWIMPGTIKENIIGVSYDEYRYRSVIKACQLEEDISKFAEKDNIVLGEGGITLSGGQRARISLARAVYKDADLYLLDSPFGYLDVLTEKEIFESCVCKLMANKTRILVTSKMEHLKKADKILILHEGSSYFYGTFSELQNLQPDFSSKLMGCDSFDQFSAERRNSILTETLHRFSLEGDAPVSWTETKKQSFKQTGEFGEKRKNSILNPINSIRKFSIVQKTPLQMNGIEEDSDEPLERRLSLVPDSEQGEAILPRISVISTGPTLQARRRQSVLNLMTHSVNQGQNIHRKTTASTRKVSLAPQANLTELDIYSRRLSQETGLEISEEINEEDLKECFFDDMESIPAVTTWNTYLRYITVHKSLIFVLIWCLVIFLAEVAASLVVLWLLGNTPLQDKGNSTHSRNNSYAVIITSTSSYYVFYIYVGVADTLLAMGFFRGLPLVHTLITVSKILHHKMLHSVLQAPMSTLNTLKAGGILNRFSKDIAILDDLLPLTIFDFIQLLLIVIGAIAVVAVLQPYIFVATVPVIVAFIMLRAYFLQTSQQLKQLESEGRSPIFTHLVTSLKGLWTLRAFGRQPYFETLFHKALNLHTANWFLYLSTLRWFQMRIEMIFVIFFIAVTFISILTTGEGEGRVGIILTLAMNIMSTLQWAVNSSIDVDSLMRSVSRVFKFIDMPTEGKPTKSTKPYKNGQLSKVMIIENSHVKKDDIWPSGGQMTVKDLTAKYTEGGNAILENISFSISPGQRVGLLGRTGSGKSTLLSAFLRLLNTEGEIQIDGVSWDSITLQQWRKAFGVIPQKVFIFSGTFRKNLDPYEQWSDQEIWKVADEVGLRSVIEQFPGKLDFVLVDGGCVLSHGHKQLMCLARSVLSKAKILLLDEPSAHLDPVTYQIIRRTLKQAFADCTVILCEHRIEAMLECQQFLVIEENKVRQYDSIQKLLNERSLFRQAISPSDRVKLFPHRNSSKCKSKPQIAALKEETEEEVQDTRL
# METHOD_SUMMARY: Cell Surface Expression-Horse Radish Peroxidase (CSE-HRP) assay, test compound with co-corrector
# Format: cell-based
# CONDITIONS: CSE-HRP assay, test compound with 2 μM co-corrector
pEC50: −log10 of the molar value.
MEASUREMENT_NAME: pEC50

Here is how some molecules turned out for pEC50.
>>> reading("COc1ccc(C2=CCOCC2)c2c1C(C(=O)NS(=O)(=O)c1cccc3ncccc13)CC2 (centres unmarked)")
"> 5.52"
>>> reading("COc1ccc(-c2ccc(C)cc2)c2c1C(C(=O)NS(=O)(=O)c1cccc3ccccc13)CCC2 (centres unmarked)")
"> 5.52"
>>> reading("COc1ccc(Br)c2c1C(C(=O)NS(=O)(=O)c1cccc(N)n1)CC2 (centres unmarked)")
"5.00 to 5.52"
>>> reading("O=C(NS(=O)(=O)c1cccc2ccccc12)C1(Cc2ccccn2)CCc2c(Cl)cccc21 (centres unmarked)")
"5.00 to 5.52"
>>> reading("CCC1(C(=O)NS(=O)(=O)c2cccc(F)c2C#N)CCc2c(Cl)cccc21 (centres unmarked)")
"≤ 5.00"
>>> reading("COc1ccc(-c2cccc(OC(F)(F)F)c2)c2c1CCCC2C(=O)NS(=O)(=O)c1cccc2ccccc12 (centres unmarked)")
"> 5.52"
>>> reading("CCC1(C(=O)NS(=O)(=O)c2cc(C)ccc2Cl)CCc2c(Cl)cccc21 (centres unmarked)")
"≤ 5.00"
>>> reading("COc1ccc(Br)c2c1C(C(=O)NS(=O)(=O)c1cccc3c(C(=O)O)cccc13)CC2 (centres unmarked)")
"5.00 to 5.52"

IN: Query pEC50 on F508delCFTR (Homo sapiens, UniProt P13569, DEL508-508) for COc1ccc2c(c1OC)CC2C(=O)NS(=O)(=O)c1cccc2ccccc12 (centres unmarked)
OUT: 5.00 to 5.52

IN: pEC50 of CCC1(C(=O)NS(=O)(=O)c2cccc(Cl)c2)CCc2c(Cl)cccc21 (centres unmarked) on F508delCFTR (Homo sapiens, UniProt P13569, DEL508-508)?
OUT: > 5.52

IN: // lookup pEC50 | system=F508delCFTR (Homo sapiens, UniProt P13569, DEL508-508) | key= CCC1(C(=O)NS(=O)(=O)c2ccc3c(c2)OCCO3)CCc2c(Cl)cccc21 (centres unmarked)
OUT: 5.00 to 5.52

IN: What pEC50 appears in the records for this molecule with F508delCFTR (Homo sapiens, UniProt P13569, DEL508-508)? COc1ccc(C(=O)N(C)C)c2c1C(C(=O)NS(=O)(=O)c1cccc3ccccc13)CC2 (centres unmarked)
OUT: ≤ 5.00

IN: Quick check: pEC50 on F508delCFTR (Homo sapiens, UniProt P13569, DEL508-508), item Cc1ccccc1S(=O)(=O)NC(=O)C1CCc2c(-c3cn[nH]c3)cccc21 (centres unmarked) ?
OUT: ≤ 5.00

IN: Hi! What's the reported pEC50 for CCC1(C(=O)NS(=O)(=O)c2ccccc2OCCN2CCCCC2)CCc2c(Cl)cccc21 (centres unmarked) on F508delCFTR (Homo sapiens, UniProt P13569, DEL508-508)?
OUT: 5.00 to 5.52

IN: Give the reported pEC50 for CCC1(C(=O)NS(=O)(=O)c2c(C)nn(C)c2Cl)CCc2c(Cl)cccc21 (centres unmarked) (system: F508delCFTR (Homo sapiens, UniProt P13569, DEL508-508)).
OUT: ≤ 5.00

IN: Form entry - test system: F508delCFTR (Homo sapiens, UniProt P13569, DEL508-508); read-out: pEC50; molecule: CCC1(C(=O)NS(=O)(=O)c2ccc3ncccc3c2)CCc2c(Cl)cccc21 (centres unmarked)
OUT: 5.00 to 5.52

IN: State its pEC50 on F508delCFTR (Homo sapiens, UniProt P13569, DEL508-508): CCC1(C(=O)NS(=O)(=O)c2cnccc2N2CCN(C(C)C)CC2)CCc2c(Cl)cccc21 (centres unmarked)
OUT: ≤ 5.00

IN: Reported pEC50 for F508delCFTR (Homo sapiens, UniProt P13569, DEL508-508), given CCC1(C(=O)NS(=O)(=O)c2cc[nH]n2)CCc2c(Cl)cccc21 (centres unmarked) ?
OUT: 5.00 to 5.52

IN: Query the reported pEC50 for F508delCFTR (Homo sapiens, UniProt P13569, DEL508-508); item: CCC1(C(=O)NS(=O)(=O)c2c(OC)cccc2OC)CCc2c(Cl)cccc21 (centres unmarked)
OUT: ≤ 5.00

IN: Find the measured pEC50: item Cc1ccccc1S(=O)(=O)NC(=O)C1CCc2c(-c3cncc(F)c3)cccc21 (centres unmarked) , target or system F508delCFTR (Homo sapiens, UniProt P13569, DEL508-508).
OUT: ≤ 5.00

IN: Enter reported pEC50 observed with F508delCFTR (Homo sapiens, UniProt P13569, DEL508-508) for COc1ccc(-c2cncnc2)c2c1C(C(=O)NS(=O)(=O)c1cccc3ncccc13)CC2 (centres unmarked)
OUT: 5.00 to 5.52

IN: Record CCC1(C(=O)NS(=O)(=O)c2ccc(Oc3ccccc3)cc2)CCc2c(Cl)cccc21 (centres unmarked) : what is its pEC50 with F508delCFTR (Homo sapiens, UniProt P13569, DEL508-508)?
OUT: ≤ 5.00

IN: Quick check: pEC50 on F508delCFTR (Homo sapiens, UniProt P13569, DEL508-508), item CCC1(C(=O)NS(=O)(=O)c2ccc(C)cc2)CCc2c(Cl)cccc21 (centres unmarked) ?
OUT: > 5.52

IN: Item: COc1ccc(CN2CCCC2)c2c1C(C(=O)NS(=O)(=O)c1cccc3ccccc13)CC2 (centres unmarked) Test system: F508delCFTR (Homo sapiens, UniProt P13569, DEL508-508) Read-out: pEC50 Value: ?
OUT: 5.00 to 5.52

IN: Observed pEC50 on F508delCFTR (Homo sapiens, UniProt P13569, DEL508-508) for CCC1(C(=O)NS(=O)(=O)c2ccc(-c3ccccc3)cc2)CCc2c(Cl)cccc21 (centres unmarked) , please.
OUT: 5.00 to 5.52

IN: Enter reported pEC50 observed with F508delCFTR (Homo sapiens, UniProt P13569, DEL508-508) for O=C(NS(=O)(=O)c1cccc2ccccc12)C1CCc2c(Br)ccc(O)c21 (centres unmarked)
OUT: 5.00 to 5.52

IN: # value lookup — system F508delCFTR (Homo sapiens, UniProt P13569, DEL508-508), readout pEC50, item Cc1ccccc1S(=O)(=O)NC(=O)C1CCc2c(-c3ccncc3F)cccc21 (centres unmarked)
OUT: 5.00 to 5.52

IN: // fetch F508delCFTR (Homo sapiens, UniProt P13569, DEL508-508) pEC50 for COc1ccc(-c2cncnc2)c2c1C(C(=O)NS(=O)(=O)c1cccc3ccccc13)CCC2 (centres unmarked)
OUT: > 5.52

IN: Give F508delCFTR (Homo sapiens, UniProt P13569, DEL508-508) pEC50 for COc1cccc2c1CCC[C@H]2C(=O)NS(=O)(=O)c1cccc(N)n1
OUT: ≤ 5.00

IN: Notebook: pull reported pEC50 for F508delCFTR (Homo sapiens, UniProt P13569, DEL508-508), entry COc1ccc(-c2ccc(C)nc2)c2c1C(C(=O)NS(=O)(=O)c1cccc3ccccc13)CCC2 (centres unmarked)
OUT: > 5.52

IN: Short answer please: pEC50, F508delCFTR (Homo sapiens, UniProt P13569, DEL508-508), entry Cc1ccccc1S(=O)(=O)NC(=O)C1CCc2c(-c3c(C)nn(C)c3C)cccc21 (centres unmarked)
OUT: ≤ 5.00

IN: What reported pEC50 corresponds to COc1ccc(Br)c2c1C(C(=O)NS(=O)(=O)c1cccnc1OC)CC2 (centres unmarked) on F508delCFTR (Homo sapiens, UniProt P13569, DEL508-508)?
OUT: 5.00 to 5.52

IN: Identify the measured pEC50 of Cc1ccccc1S(=O)(=O)NC(=O)C1CCc2c(-c3ccnn3C)cccc21 (centres unmarked) for F508delCFTR (Homo sapiens, UniProt P13569, DEL508-508).
OUT: ≤ 5.00

IN: Return pEC50 measured with F508delCFTR (Homo sapiens, UniProt P13569, DEL508-508) given this molecule: COc1ccc(Br)c2c1C(C(=O)NS(=O)(=O)c1ccc(OC)c3ccccc13)CC2 (centres unmarked)
OUT: 5.00 to 5.52

IN: Kindly state the measured pEC50 obtained for CCC1(C(=O)NS(=O)(=O)c2cccc(Cl)c2C)CCc2c(Cl)cccc21 (centres unmarked) with F508delCFTR (Homo sapiens, UniProt P13569, DEL508-508).
OUT: > 5.52

Numbers sourced from patent US20180244611A1.
